Source of measurements: patent US20220275417A1

target: T1, recombinant human sCD4 CF (manufactured by R&D Systems) (human, UniProt P01730 26-390, limits assumed); experiment: SPR, Biacore T-200, CD4 immobilized on chip, as in Example 2
T1 construct: Immobilized on the Biacore sensor chip; also called recombinant CD4; CD4 antigen
reported.endpoint: kon (M⁻¹ s⁻¹)
Return type: number; implicit unit M⁻¹ s⁻¹.

// worked examples, kon included
binder	obs.value
anti-CD4-FLAG (VHH, Secreted from Pichia pastoris with the alpha-factor signal, which is cleaved during secretion; also called Anri-CD4-FLAG; anti-CD4 nanobody with no barcode) VHH: EVQLVESGGGSVQPGGSLTLSCGTSGRTFNVMGWFRQAPGKEREFVAAVRWSSTGIYYTQYADSVKSRFTISRDNAKNTVYLEMNSLKPEDTAVYYCAADTYNSNPARWDGYDFRGQGTQVTVSS	140000
anti-CD4 with barcode 4-6 (VHH, secreted from Pichia pastoris) VHH: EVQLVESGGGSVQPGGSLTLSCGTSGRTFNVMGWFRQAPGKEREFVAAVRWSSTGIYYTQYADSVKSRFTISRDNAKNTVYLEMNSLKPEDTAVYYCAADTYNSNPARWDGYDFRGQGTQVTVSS	120000

Prompt: Indicate the recorded kon value for this binder: anti-CD4 with barcode 4-1 (VHH, secreted from Pichia pastoris) VHH: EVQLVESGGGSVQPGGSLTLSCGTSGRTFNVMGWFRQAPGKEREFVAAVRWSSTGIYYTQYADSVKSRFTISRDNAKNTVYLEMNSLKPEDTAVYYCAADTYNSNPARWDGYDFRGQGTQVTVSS
Completion: 140000

Prompt: Indicate the recorded kon value for this binder: anti-CD4 with barcode 4-3 (VHH, secreted from Pichia pastoris) VHH: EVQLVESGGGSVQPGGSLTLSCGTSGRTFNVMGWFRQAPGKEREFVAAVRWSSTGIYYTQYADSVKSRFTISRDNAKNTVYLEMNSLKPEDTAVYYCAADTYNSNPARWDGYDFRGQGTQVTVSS
Completion: 140000
